This collection of values is drawn from paper PMC9664868.

Target: PfDPCK (Plasmodium falciparum, UniProt Q8IL34)
Sequence (Q8IL34 entry or part of it): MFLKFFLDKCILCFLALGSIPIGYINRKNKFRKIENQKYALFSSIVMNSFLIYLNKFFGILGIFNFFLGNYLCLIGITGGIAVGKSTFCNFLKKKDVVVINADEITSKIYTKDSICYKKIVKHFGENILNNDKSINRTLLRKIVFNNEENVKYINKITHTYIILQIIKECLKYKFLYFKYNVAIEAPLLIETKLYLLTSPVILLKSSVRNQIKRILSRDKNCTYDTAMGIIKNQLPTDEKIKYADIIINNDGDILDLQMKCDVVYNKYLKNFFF
Test: PfDPCK inhibition, enzyme-coupled fluorescence ADP detection assay (HTS and IC50 determination)
Type: biochemical
Settings: recombinant enzyme; means ± SEMs; read-out: IC50 (μM) of: PfDPCK
Description: High-throughput screening against recombinant PfDPCK was performed using the Drug Discovery Initiative (DDI) full library, available from The University of Tokyo, composed of approximately 210,000 compounds. […] The reaction was stopped, and produced ADP was quantified using an enzyme-coupled fluorescence ADP detection assay, using PHERAstar microplate reader (BMG Labtech, Offenburg, Germany) with excitation at 540 nm and emission at 590 nm, as previously described ([17]). […]
measurementName: IC50 (µM)

(a) Cc1cc(-c2csc(N3CCCC3)n2)c(C)n1-c1c(C)n(C)n(-c2ccccc2)c1=O [Compound A-44]
(b) CNc1nc(NC(C)(C)C)nc(NC(C)(C)C)n1 [Compound A-2]
Input line: Looking at a and b , which one comes out lower in IC50 terms? Indicate which entry you chose by stating its label.
Output line: b
(b: 0.4 µM, a: 6.33 µM)
